# Measurement protocol: First-in-human PET/CT in advanced NSCLC patients: tumor uptake and biodistribution
# Conditions used: human, primary tumor in left lung, iv, SUVmax of primary tumor in left lung, patient 3, PD-L1 TPS 8%
Value kind: SUV
Answer as a quantity: numeral, then unit.

Which SUV is reported for this compound? CCCC[C@H]1C(=O)N(C)[C@@H](CCCC)C(=O)N[C@@H](CCCNC(=O)CN2CCN(CC(=O)O)CCN(CC(=O)O)CC2)C(=O)N[C@H](C(=O)NCC(N)=O)CSCC(=O)N[C@@H](Cc2ccc(O)cc2)C(=O)N(C)[C@@H](C)C(=O)N[C@@H](CC(N)=O)C(=O)N2CCC[C@H]2C(=O)N[C@@H](Cc2c[nH]cn2)C(=O)N[C@@H](CC(C)C)C(=O)N2C[C@H](O)C[C@H]2C(=O)N[C@@H](Cc2c[nH]c3ccccc23)C(=O)N[C@@H](CO)C(=O)N[C@@H](Cc2cn(C)c3ccccc23)C(=O)N1C [^68Ga-NOTA-WL12, metal not drawn] 1.84 SUV
